Can you tell me pEC50 for the items I'm about to list?
Target: HLA-B*2705 (Homo sapiens, UniProt P01889, D138H/D201E/E176V/E204Q/G107R/H137Y/K202T/N104T/N87E/Q56L/Q94K/R106L/R155S/R180L/S101D/S121N/S48T/Y140D/Y33H/Y91C)
Construct: expressed in transfected cells; host or cells: RMA-S (TAP-deficient murine cell line)
Experiment: HLA/peptide complex stability assay, RMA-S cells transfected with HLA-B*2705
Format: cell-based
Details: relative affinity (EC50 class), B*2705
pEC50: −log10 of the molar value. Ends that are not written are not given here.

What does the data say about its pEC50? Entry: GRNEVFSNK [L 2089-2097]
4.22 to 4.70

Look at this sequence and give its reported pEC50. VRNKDLNTL [M 169-177]
3.70 to 4.21

Given the sequence HRQDINGKEM [NP 100-109] , what is its reported pEC50?
4.22 to 4.70

Which pEC50 is listed for LRNEESEKMAK [P 198-208] ?
3.70 to 4.21

meta.source: paper PMC4182091
